Source: PubChem BioAssay

- Tested on: Chordin-like protein 2 (CHRDL2)
- assay protocol: CHRDL2 small-molecule binders, primary screen, biochemical, small-molecule microarray, 635 nm fluorescence (AID 1126);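 note: printed compound slides probed with Chrdl2 protein at 4 µg/mL for 1 h at 4 C; score merges 667 nm emission intensity with signal to noise over three replicate slides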
- applied conditions: small-molecule microarray binding, fluorescence 635 nm; higher = more signal
Some molecules, each annotated with its measured composite z-score.
Note: the reply should be a number with no unit written.

Examples with answers:
[
  {
    "smiles record": "O=C/C=C/c1ccc(Cl)cc1",
    "composite z-score": 0.0502
  },
  {
    "smiles record": "O=C(CS)NCCCCCCNC(=O)[C@H]1C[C@H]2C(=O)NCC(=O)N2[C@H]1c1ccc(O)cc1",
    "composite z-score": 0.129
  }
]

stdin: Any idea what composite z-score was measured for `Cc1ccc([C@H]2C(C(=O)O)=C[C@@H](C)N2S(=O)(=O)c2ccc(C)cc2)cc1` ?
stdout: -1.55

stdin: Any idea what composite z-score was measured for `[N-]=[N+]=NCc1ccccc1[C@H]1OC(c2ccc(OCCCO)cc2)=N[C@@]1(CCS(=O)(=O)c1ccccc1)C(=O)N1CCOCC1` ?
stdout: -0.584

stdin: Any idea what composite z-score was measured for `O=C1O[C@@H](c2ccccc2)[C@@H](c2ccccc2)N2[C@@H](c3ccc(OCCO)cc3)[C@]3(C(=O)Nc4ccc(C#CC5=CCCCC5)cc43)[C@@H](C(=O)O)[C@H]12` ?
stdout: 0.0501

stdin: Any idea what composite z-score was measured for `C=CC[C@]1(C(=O)N2CCOCC2)N=C(c2ccc(OCCCO)cc2)O[C@H]1c1ccccc1` ?
stdout: -0.0547

---

- study target: Dickkopf-related protein 1 (Homo sapiens)
- assay protocol: DKK1 binders on small-molecule microarrays, primary screen, biochemical, small-molecule microarray, 635 nm fluorescence scan (AID 1106);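 note: score merges emission near 667 nm with signal to noise over three replicate slides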
- applied conditions: DKK1 binding, higher = more signal
readout name: composite z-score
Note: the reply should be a number with no unit written.

[
  {
    "molecule": "Cc1ccc(S[C@]2(C(=O)NCC(C)C)CC(=O)N(Cc3ccccc3)[C@@H]2c2ccc(CO)cc2I)cc1",
    "study target": "Dickkopf-related protein 1 (Homo sapiens)",
    "composite z-score": 0.149
  }
]

stdin: Any idea what composite z-score was measured for CCCCCN1CC=CC23O[C@@H]4/C=C\CCCOC(=O)C4[C@H]2C(=O)N(CCCCCCO)[C@@H]3C1=O (some centres not stated) ?
stdout: -1.22

stdin: Any idea what composite z-score was measured for O=C1OCCC=C[C@H]2OC34C=CCN(Cc5ccccc5)C(=O)[C@H]3N(CCCCCCO)C(=O)[C@@H]4C12 (some centres not stated) ?
stdout: -1.38

stdin: Any idea what composite z-score was measured for CC(C)C(O)C1C=CC2C(=O)N(c3ccccc3)C(=O)C2N1Nc1ccc(C#N)cc1 (configuration not stated) ?
stdout: -0.512

stdin: Any idea what composite z-score was measured for `COCCOC(=O)N1C(=O)[C@@]2(c3cc(C#CCC(C(=O)OC)C(=O)OC)ccc31)[C@H](c1ccccc1OCCO)N1[C@H](c3ccccc3)[C@H](c3ccccc3)OC(=O)[C@H]1[C@@H]2C(=O)N1CCc2cc(OC)c(OC)cc2C1` ?
stdout: 1.42

stdin: Any idea what composite z-score was measured for `COC(=O)[C@]1(Cc2ccccc2N=[N+]=[N-])N=C(c2ccc(OCCCO)cc2)O[C@@H]1c1ccccc1N=[N+]=[N-]` ?
stdout: -0.0862

stdin: Any idea what composite z-score was measured for `CCCNC(=O)[C@@H]1c2ccccc2C(=O)N(Cc2ccccc2)[C@H]1c1ccc(CO)cc1` ?
stdout: -0.744

---

Some compounds, each annotated with its measured composite z-score.
- study target: Epidermal growth factor receptor (Homo sapiens) (UniProt P00533)
- Sequence (P00533 whole entry, looked up): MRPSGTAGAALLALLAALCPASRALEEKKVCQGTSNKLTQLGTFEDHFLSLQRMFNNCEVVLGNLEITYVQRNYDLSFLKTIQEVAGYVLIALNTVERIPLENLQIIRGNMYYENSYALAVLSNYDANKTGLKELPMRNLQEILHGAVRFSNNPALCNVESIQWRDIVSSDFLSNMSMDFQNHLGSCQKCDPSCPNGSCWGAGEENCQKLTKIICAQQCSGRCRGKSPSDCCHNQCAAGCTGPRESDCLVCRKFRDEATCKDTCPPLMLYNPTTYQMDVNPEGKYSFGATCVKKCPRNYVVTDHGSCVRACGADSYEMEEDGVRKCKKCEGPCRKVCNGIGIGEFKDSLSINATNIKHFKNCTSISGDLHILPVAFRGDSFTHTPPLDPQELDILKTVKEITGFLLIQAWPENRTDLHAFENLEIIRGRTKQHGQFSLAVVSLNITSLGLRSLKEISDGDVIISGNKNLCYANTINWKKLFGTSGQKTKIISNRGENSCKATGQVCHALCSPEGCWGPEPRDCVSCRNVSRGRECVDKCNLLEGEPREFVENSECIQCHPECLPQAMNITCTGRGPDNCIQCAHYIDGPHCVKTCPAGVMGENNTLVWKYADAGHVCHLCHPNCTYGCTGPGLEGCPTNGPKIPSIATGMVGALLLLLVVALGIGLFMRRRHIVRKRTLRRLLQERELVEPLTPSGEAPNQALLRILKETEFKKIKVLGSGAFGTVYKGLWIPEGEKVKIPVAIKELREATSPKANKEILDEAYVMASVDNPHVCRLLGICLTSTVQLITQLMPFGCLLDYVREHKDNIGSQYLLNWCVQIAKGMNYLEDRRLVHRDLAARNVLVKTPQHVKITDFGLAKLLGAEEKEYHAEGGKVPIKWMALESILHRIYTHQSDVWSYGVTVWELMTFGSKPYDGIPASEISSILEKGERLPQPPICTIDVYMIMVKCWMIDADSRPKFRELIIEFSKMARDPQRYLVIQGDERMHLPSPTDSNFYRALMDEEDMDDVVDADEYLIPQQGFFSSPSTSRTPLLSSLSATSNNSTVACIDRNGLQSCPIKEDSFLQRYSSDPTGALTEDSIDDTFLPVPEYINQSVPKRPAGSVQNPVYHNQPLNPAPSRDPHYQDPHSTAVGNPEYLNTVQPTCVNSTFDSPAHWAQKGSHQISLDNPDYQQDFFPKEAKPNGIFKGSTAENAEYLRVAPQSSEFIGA
- assay protocol: EGFR binders on small-molecule microarrays, primary screen, biochemical, small-molecule microarray, 635 nm fluorescence (AID 1104);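 note: score merges 667 nm emission intensity with spot signal to noise over triplicate slides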
- applied conditions: EGFR binding, higher = more signal
Note: the reply should be a number with no unit written.

Examples with answers:
[
  {
    "compound": "CCOC(=O)C[C@H]1[C@H](OC(=O)Cc2ccc3c(c2)OCO3)[C@@H](NC(=O)c2ccc(-c3ccccc3)cc2)c2cc(OCCCO)ccc2N1C(=O)c1ccccc1",
    "study target": "Epidermal growth factor receptor (Homo sapiens) (UniProt P00533)",
    "composite z-score": 0.457
  },
  {
    "compound": "CCCCC=C[C@@H](NC(=O)c1cccs1)c1ccccc1",
    "study target": "Epidermal growth factor receptor (Homo sapiens) (UniProt P00533)",
    "composite z-score": -0.273
  }
]

stdin: Any idea what composite z-score was measured for `COCCOC(=O)N1C(=O)[C@@]2(c3cc(C#CCC(C(=O)OC)C(=O)OC)ccc31)[C@H](c1ccc(O)cc1)N1[C@H](c3ccccc3)[C@H](c3ccccc3)OC(=O)[C@H]1[C@@H]2C(N)=O` ?
stdout: 0.212

stdin: Any idea what composite z-score was measured for C=CCC(OC(C)=O)[C@@H]1[C@@H](N(Cc2ccc(-c3cccc(C(F)(F)F)c3)o2)C(=O)c2ccc(C)cc2)c2cc(OCCCO)ccc2N1C(=O)c1ccc(-c2ccccc2)cc1 (some centres undefined) ?
stdout: -0.0697

---

- assay protocol: basal RPMI8226 mitochondrial membrane potential changes, profiling panel, cell-based, JC-1 fluorescence, 24 h, 100 nL compound (AID 1169); note: test concentration not given here
- applied conditions: RPMI8226 myeloma, JC-1 mitochondrial potential fluorescence, higher = more signal
Please use rule met whenever z-score is not below -0.3, and rule not met whenever it is.

[
  {
    "molecule": "[N-]=[N+]=NCc1ccccc1[C@@H]1OC(c2ccc(OCCCO)cc2)=N[C@]1(Cc1ccccc1N=[N+]=[N-])C(=O)NCc1ccccc1",
    "cat": "rule not met"
  },
  {
    "molecule": "Cc1ccc(S[C@]2(C(=O)NCc3ccccc3)CC(=O)N(Cc3ccccc3)[C@@H]2c2ccc(CO)cc2)cc1",
    "cat": "rule met"
  },
  {
    "molecule": "CC(C)c1ccc(NN2C(C(O)c3c(F)cccc3Cl)C=CC3C(=O)N(c4ccccc4)C(=O)C32)cc1 (configuration not stated)",
    "cat": "rule not met"
  }
]

stdin: Is it the case that `Cc1ccc(S[C@]2(C(=O)NCCN3CCOCC3)CC(=O)N(Cc3cc(C(F)(F)F)cc(C(F)(F)F)c3)[C@@H]2c2ccc(CO)cc2I)cc1` has z-score reaching or exceeding -0.3?
stdout: rule met

stdin: Is it the case that COC(=O)c1ccc(C(O)C2C=CC3C(=O)N(c4ccccc4)C(=O)C3N2Nc2ccc(C#N)cc2)o1 (configuration not stated) has z-score reaching or exceeding -0.3?
stdout: rule met

stdin: Is it the case that C=CC[C@@]1(C(=O)NCC(O)CO)N=C(c2ccc(OCCCO)cc2)O[C@@H]1c1ccccc1N=[N+]=[N-] (some centres not stated) has z-score reaching or exceeding -0.3?
stdout: rule met

stdin: Is it the case that `O=C1O[C@@H](c2ccccc2)[C@@H](c2ccccc2)N2[C@@H](c3ccc(O)cc3)[C@]3(C(=O)Nc4ccc(C#CC5=CCCCC5)cc43)[C@@H](C(=O)O)[C@H]12` has z-score reaching or exceeding -0.3?
stdout: rule met

stdin: Is it the case that `COc1ccc(CCN2C(=O)[C@@]3(Cc4ccccc42)c2ccccc2C(=O)N(Cc2ccccc2Cl)[C@H]3c2ccc(CO)cc2)cc1` has z-score reaching or exceeding -0.3?
stdout: rule not met

stdin: Is it the case that `Cc1ccc(S[C@]2(C(=O)NCc3ccccc3)CC(=O)N(Cc3ccccc3Cl)[C@@H]2c2ccc(CO)cc2I)cc1` has z-score reaching or exceeding -0.3?
stdout: rule met

stdin: Is it the case that `COCCOC(=O)N1C(=O)[C@@]2(c3ccccc31)[C@H](C(=O)NC[C@H](O)c1ccccc1)[C@H]1C(=O)O[C@H](c3ccccc3)[C@H](c3ccccc3)N1[C@@H]2c1ccc(OCCO)cc1` has z-score reaching or exceeding -0.3?
stdout: rule not met

stdin: Is it the case that `CCCCC=C[C@@H](NC(=O)c1ccco1)c1ccccc1` has z-score reaching or exceeding -0.3?
stdout: rule met

stdin: Is it the case that CCCCCCCCCCC(O)C1C=CC2C(=O)N(Cc3ccccc3)C(=O)C2N1n1cnnc1 (configuration not stated) has z-score reaching or exceeding -0.3?
stdout: rule met

stdin: Is it the case that `Cc1ccc(S[C@]2(C(=O)NC3CC3)CC(=O)N(C3CCCCC3)[C@@H]2c2ccc(CO)cc2I)cc1` has z-score reaching or exceeding -0.3?
stdout: rule not met

stdin: Is it the case that CCC(CC)C(O)C1C=CC2C(=O)N(c3ccccc3)C(=O)C2N1Nc1ccc(C#N)cc1 (configuration not stated) has z-score reaching or exceeding -0.3?
stdout: rule not met

---

- study target: Fibroblast growth factor 2 (Homo sapiens)
- assay protocol: FGF2 binders on small-molecule microarrays, primary screen, biochemical, small-molecule microarray, 635/667 nm fluorescence (AID 1133)
- applied conditions: small-molecule microarray binding, FGF2, fluorescence 635/667; higher = more signal
Please use criterion met whenever composite z-score is not below 0.7, and criterion not met whenever it is.

[
  {
    "compound": "O=C(CS)NCCCCCCNC(=O)[C@@H]1C[C@@H]2C(=O)N3CCC[C@H]3C(=O)N2[C@@H]1c1ccc(O)cc1",
    "cat": "criterion met"
  },
  {
    "compound": "N#Cc1ccc(NN2C(C(O)c3ccc([N+](=O)[O-])cc3)C=CC3C(=O)N(c4ccccc4)C(=O)C32)cc1 (configuration not stated)",
    "cat": "criterion not met"
  }
]

stdin: Is it the case that `CCC[C@@H]1C=C(C(=O)O)[C@H](c2ccc(C)cc2)N1S(=O)(=O)c1ccc(C)cc1` has composite z-score reaching or exceeding 0.7?
stdout: criterion not met

stdin: Is it the case that `O=C1O[C@@H](c2ccccc2)[C@@H](c2ccccc2)N2[C@@H](c3ccc(OCCO)cc3)[C@]3(C(=O)Nc4ccccc43)[C@@H](C(=O)Nc3nc4ccccc4s3)[C@H]12` has composite z-score reaching or exceeding 0.7?
stdout: criterion met

stdin: Is it the case that `CN(C)CCCCNC(=O)[C@H]1C[C@H]2C(=O)N[C@@H](Cc3ccccc3)C(=O)N2[C@H]1c1ccc(O)cc1` has composite z-score reaching or exceeding 0.7?
stdout: criterion met

stdin: Is it the case that O=C1OCCC=C[C@H]2OC34C=CCN(Cc5ccccc5)C(=O)[C@H]3N(CCCCCO)C(=O)[C@@H]4C12 (some centres not stated) has composite z-score reaching or exceeding 0.7?
stdout: criterion not met

stdin: Is it the case that `Cc1ccc(S[C@]2(C(=O)O)CC(=O)N(C3Cc4ccccc4C3)[C@@H]2c2ccc(CO)cc2I)cc1` has composite z-score reaching or exceeding 0.7?
stdout: criterion not met

stdin: Is it the case that `COCCOC(=O)N1C(=O)[C@@]2(c3ccccc31)[C@H](C(=O)NC[C@H](O)c1ccccc1)[C@H]1C(=O)O[C@H](c3ccccc3)[C@H](c3ccccc3)N1[C@@H]2c1ccc(OCCO)cc1` has composite z-score reaching or exceeding 0.7?
stdout: criterion met

stdin: Is it the case that `O=C1O[C@H](c2ccccc2)[C@H](c2ccccc2)N2[C@H]1[C@@H](C(=O)N1CCN(c3ncccn3)CC1)[C@]1(C(=O)Nc3ccccc31)[C@H]2c1ccc(OCCO)cc1` has composite z-score reaching or exceeding 0.7?
stdout: criterion met

stdin: Is it the case that `CCOC(=O)C1=CC[C@@H](c2ccccc2Cl)N(S(=O)(=O)c2ccc(C)cc2)C1` has composite z-score reaching or exceeding 0.7?
stdout: criterion not met
